Counter-ions that a name gives are not always drawn.
Metric: melting point (°C)
Give bare numbers, in °C.

Use the examples below as a reference point.
compound="CCn1c(N)c(C(=O)NC)c(=O)c2ccc(C#CC(C)(C)N)nc21 (as salt: hydrochloride)" measured_value=293
compound=CCn1c(N)c(C(=O)NC)c(=O)c2ccc(C#CC(C)(C)OCC(N)=O)nc21 measured_value=204

Lookup: Given the entry "CCn1c(N)c(C(=O)NC)c(=O)c2ccc(C#CCOC)nc21" , report its measured melting point.
Found: 233

====

Target: VEGFR-3-TK (Homo sapiens)
Sequence (P35916 800-1297 limits assumed): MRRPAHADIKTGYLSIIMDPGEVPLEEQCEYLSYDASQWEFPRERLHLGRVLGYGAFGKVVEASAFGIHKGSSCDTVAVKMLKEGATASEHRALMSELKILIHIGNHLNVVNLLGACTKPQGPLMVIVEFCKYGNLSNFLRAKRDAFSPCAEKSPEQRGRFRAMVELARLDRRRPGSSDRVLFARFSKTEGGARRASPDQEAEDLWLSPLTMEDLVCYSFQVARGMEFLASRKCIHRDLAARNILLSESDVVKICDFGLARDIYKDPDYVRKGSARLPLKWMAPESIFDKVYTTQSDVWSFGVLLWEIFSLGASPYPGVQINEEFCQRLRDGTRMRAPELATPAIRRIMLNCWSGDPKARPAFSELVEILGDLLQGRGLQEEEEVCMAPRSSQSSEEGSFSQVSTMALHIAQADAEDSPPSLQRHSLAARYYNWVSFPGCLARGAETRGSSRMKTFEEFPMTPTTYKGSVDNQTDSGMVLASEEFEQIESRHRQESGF
Where a name gives a salt, the structure may show the parent alone.
Metric: IC50 (nM)
Give bare numbers, in nM.

Lookup: Given the entry CCn1c(N)c(C(=O)NC)c(=O)c2ccc(C#CC(C)(C)N)nc21 [Compound 4, hydrochloride] , report its measured IC50.
Found: 451
